Where do the numbers come from? From the supplement of paper PMC4466140.

Biological target: ScCyk3
Test: SPOT peptide array binding signal intensity (averaged, normalized) (arbitrary units (background-subtracted, floor 0; scale differs between SH3 domains)); higher = stronger binding of the SH3 domain to the peptide
OBSERVED PROPERTY: SPOT peptide array binding signal intensity
Number, no unit, nothing else.

Requested read-out: SPOT peptide array binding signal intensity. Entry: FFRRSELYLPNSSKA 24

Requested read-out: SPOT peptide array binding signal intensity. Entry: RRGPAPPPPPRASRP 16

Requested read-out: SPOT peptide array binding signal intensity. Entry: VPPPMQPPPIESSNL 5
